Below, each entry is listed alongside its reported pKd.
Molecular target: T1, NHERF3_4, Q5T2W1
T1 sequence (Q5T2W1 373-468, limits assumed, looked up): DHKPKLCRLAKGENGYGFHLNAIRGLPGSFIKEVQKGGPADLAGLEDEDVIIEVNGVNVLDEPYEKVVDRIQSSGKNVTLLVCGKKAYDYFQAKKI
Test: holdup assay
Parameters: key: below the threshold = too weak to quantify, mostly under pKd 3.1 to 4
Conditions: plain residues with an end cap or a label only (N-terminal biotin on a linker: ado-ado)
API note: the answer field is a bare number with no unit suffix.

THREVKFTSL [CD46, P15529]	4.6
GTMFLRETSL [GUCY1A2, P33402]	4.38

Now for the binder whose pKd we want.
Lookup: What measured pKd goes with SGDGKTSVWI [GJC1, P36383] ?
Found: 3.52
